Assay: Pharmacokinetics after i.p. administration in mice
Type: in vivo, mouse
Settings: C57BL/6J, mouse, plasma, ip; female mice, 3 mg/kg i.p.
MEASURE NAME: Cmax (ng/mL)
All answers are understood in ng/mL, so give the number only.

Bench note: what Cmax did CCCCCCCCn1cc(C(=O)O)c(=O)c2cc3c(cc21)OCO3 [Cpd1] show?
1600

* * *

Test: Pharmacokinetics after i.p. administration in mice
Type: in vivo, mouse
Details: female, C57BL/6J, mouse, plasma, intraperitoneal, 1 mg/kg, 8-times injection of 1 mg/kg at 10 min intervals, 60 min
MEASURE NAME: concentration at 60 min (ng/mL)
Give your result in ng/mL as a bare value.

Consider the compound CCCCCCCCn1cc(C(=O)O)c(=O)c2cc3c(cc21)OCO3 [Cpd1] and give its measured concentration at 60 min.
10

* * *

Assay: Pharmacokinetics after i.p. administration in mice
Assay type: in vivo, mouse
Conditions: C57BL/6J, mouse, plasma, ip; 3 mg/kg i.p.; read-out: t1/2
MEASURE NAME: half-life
Please report the result as a number followed by the unit.

If you can, please state the reported half-life value of `CCCCCCCCn1cc(C(=O)O)c(=O)c2cc3c(cc21)OCO3` .
8.4 min

* * *

Test: Pharmacokinetics after i.p. administration in mice
Assay type: in vivo, mouse
Details: C57BL/6J, mouse, plasma, ip; male mice, 10 mg/kg i.p.
MEASURE NAME: Cmax (ng/mL)
Field format: number, assumed ng/mL, no unit text.

Any idea what Cmax was measured for CCCCCCCCn1cc(C(=O)O)c(=O)c2cc3c(cc21)OCO3 [Cpd1] ?
5100

* * *

Experiment: Pharmacokinetics after i.p. administration in mice
Format: in vivo, mouse
Settings: C57BL/6J, mouse, plasma, intraperitoneal, 10 mg/kg, 10 mg/kg i.p., 60 min
MEASURE NAME: concentration at 60 min (ng/mL)
Report only the number, with the unit ng/mL understood.

So what does the record say about concentration at 60 min for `CCCCCCCCn1cc(C(=O)O)c(=O)c2cc3c(cc21)OCO3` ?
40

* * *

Assay: Pharmacokinetics after i.p. administration in mice
Type: in vivo, mouse
Conditions: C57BL/6J, mouse, plasma, ip; male mice, 3 mg/kg i.p.; read-out: t1/2
MEASURE NAME: half-life (min)
Respond with the bare value in min.

Which value of half-life has been reported for CCCCCCCCn1cc(C(=O)O)c(=O)c2cc3c(cc21)OCO3 [Cpd1] in the records?
8.3

* * *

Assay: Pharmacokinetics after i.p. administration in mice
Type: in vivo, mouse
Settings: C57BL/6J, mouse, plasma, ip; female, 8-times injection of 1 mg/kg at 10 min intervals
MEASURE NAME: Cmax (ng/mL)
Give your result in ng/mL as a bare value.

Record request: Cmax value, item CCCCCCCCn1cc(C(=O)O)c(=O)c2cc3c(cc21)OCO3 [Cpd1]
150

* * *

Experiment: Pharmacokinetics after i.p. administration in mice
Format: in vivo, mouse
Conditions: C57BL/6J, mouse, plasma, ip; male mice, 3 mg/kg i.p.
Procedure: Cpd1 sodium salt (3 mg/kg and 10 mg/kg) dissolved in normal saline was administered i.p. to WT C57BL/6 J mice (10 week-old). Serial tail bled blood samples (∼20 μL) were collected using heparinized tip at 5, 10, 30, and 60 min after administration. Aliquots (5 μL) of plasma samples obtained from each blood were treated with 50 μL of acetonitrile and organic layer were injected onto LC–MS/MS system (Waters Corp., Milford, MA, USA). […]
MEASURE NAME: Cmax
In your response, put the unit directly after the numeric value.

Returns the measured Cmax for the input compound. Input: CCCCCCCCn1cc(C(=O)O)c(=O)c2cc3c(cc21)OCO3 [Cpd1]
1300 ng/mL

* * *

Test: Thermodynamic solubility in solutions for injection
Details: 5% glucose aqueous solution, 25 °C, saline or isotonic, thermodynamic from solid
Counter-ions that a name gives are not always drawn.
MEASURE NAME: solubility at 48 h (µg/mL)
Enter your answer as a number in µg/mL; do not include the unit.

solubility at 48 h for CCCCCCCCn1cc(C(=O)O)c(=O)c2cc3c(cc21)OCO3 [Cpd1 sodium salt] ?
351

* * *

Experiment: Pharmacokinetics after i.p. administration in mice
Format: in vivo, mouse
Conditions: C57BL/6J, mouse, plasma, ip; 3 mg/kg i.p.
MEASURE NAME: Cmax
Provide the measurement as a number trailed by its unit.

What value of Cmax has been recorded for this entry: `CCCCCCCCn1cc(C(=O)O)c(=O)c2cc3c(cc21)OCO3`
1500 ng/mL

* * *

Experiment: Pharmacokinetics after i.p. administration in mice
Format: in vivo, mouse
Conditions: C57BL/6J, mouse, plasma, ip; male mice, 10 mg/kg i.p.; read-out: t1/2
MEASURE NAME: half-life (min)
Please give a number only; it is taken to be in min.

For the compound shown here, CCCCCCCCn1cc(C(=O)O)c(=O)c2cc3c(cc21)OCO3 [Cpd1] , give the reported half-life.
7.4

* * *

Assay: Thermodynamic solubility in solutions for injection
Conditions: pure water, 25 °C, water, thermodynamic from solid
Structures can show the parent of a compound that is named as a salt.
MEASURE NAME: solubility at 48 h
Provide a numeric answer, followed by its unit.

// query solubility at 48 h value for entry CCCCCCCCn1cc(C(=O)O)c(=O)c2cc3c(cc21)OCO3 [Cpd1 sodium salt]
1360 µg/mL

* * *

Assay: Pharmacokinetics after i.p. administration in mice
Assay type: in vivo, mouse
Details: C57BL/6J, mouse, plasma, ip; female mice, 3 mg/kg i.p.; read-out: t1/2
MEASURE NAME: half-life
# output: numeric value plus its unit

Look at this compound and give its reported half-life. `CCCCCCCCn1cc(C(=O)O)c(=O)c2cc3c(cc21)OCO3`
8.6 min

* * *

Experiment: Pharmacokinetics after i.p. administration in mice
Assay type: in vivo, mouse
Conditions: C57BL/6J, mouse, plasma, ip; female mice, 10 mg/kg i.p.; read-out: t1/2
MEASURE NAME: half-life (min)
Unit min implied. Number only.

Which half-life value is on record for `CCCCCCCCn1cc(C(=O)O)c(=O)c2cc3c(cc21)OCO3` ?
9.3

* * *

Experiment: Thermodynamic solubility in solutions for injection
Details: normal saline (0.9% NaCl), 25 °C, saline or isotonic, thermodynamic from solid
MEASURE NAME: solubility at 48 h (µg/mL)
Kindly answer with a numeric value in µg/mL, unit omitted.

[[record]]
smiles_record = "CCCCCCCCn1cc(C(=O)O)c(=O)c2cc3c(cc21)OCO3"
obs_value = 849


With those in mind, consider the next compound.
Item `O=C1CN(/N=C/c2ccc(-c3ccc([N+](=O)[O-])cc3)o2)C(O)=N1` has what recorded solubility at 48 h?
25.7

* * *

Experiment: Pharmacokinetics after i.p. administration in mice
Format: in vivo, mouse
Settings: C57BL/6J, mouse, plasma, ip; male, 8-times injection of 1 mg/kg at 10 min intervals; read-out: t1/2
MEASURE NAME: half-life (min)
Lab book: enter the figure in min, no units written.

Sample `CCCCCCCCn1cc(C(=O)O)c(=O)c2cc3c(cc21)OCO3` — what was its half-life?
9.6

* * *

Experiment: Pharmacokinetics after i.p. administration in mice
Assay type: in vivo, mouse
Conditions: C57BL/6J, mouse, plasma, ip; 10 mg/kg i.p.; read-out: t1/2
MEASURE NAME: half-life (min)
Value expressed in min; do not type the unit.

Name the recorded half-life for CCCCCCCCn1cc(C(=O)O)c(=O)c2cc3c(cc21)OCO3 [Cpd1] .
8.6

* * *

Assay: Pharmacokinetics after i.p. administration in mice
Format: in vivo, mouse
Conditions: C57BL/6J, mouse, plasma, intraperitoneal, 3 mg/kg, 3 mg/kg i.p., 30 min
MEASURE NAME: concentration at 30 min (ng/mL)
Write down the numeric answer in ng/mL and omit the unit.

Please report the recorded concentration at 30 min for `CCCCCCCCn1cc(C(=O)O)c(=O)c2cc3c(cc21)OCO3` .
110

* * *

Assay: Pharmacokinetics after i.p. administration in mice
Assay type: in vivo, mouse
Conditions: male, C57BL/6J, mouse, plasma, intraperitoneal, 1 mg/kg, 8-times injection of 1 mg/kg at 10 min intervals, 60 min
MEASURE NAME: concentration at 60 min (ng/mL)
Kindly provide the numeric value in ng/mL only, without the unit symbol.

I have this molecule here, CCCCCCCCn1cc(C(=O)O)c(=O)c2cc3c(cc21)OCO3 [Cpd1] , and I need its recorded concentration at 60 min.
10
